- Test System: human Nav1.8 (hNav1.8) ion channel (Homo sapiens)
- Construct: expressed in transfected cells
- Sequence (Q9Y5Y9 whole entry): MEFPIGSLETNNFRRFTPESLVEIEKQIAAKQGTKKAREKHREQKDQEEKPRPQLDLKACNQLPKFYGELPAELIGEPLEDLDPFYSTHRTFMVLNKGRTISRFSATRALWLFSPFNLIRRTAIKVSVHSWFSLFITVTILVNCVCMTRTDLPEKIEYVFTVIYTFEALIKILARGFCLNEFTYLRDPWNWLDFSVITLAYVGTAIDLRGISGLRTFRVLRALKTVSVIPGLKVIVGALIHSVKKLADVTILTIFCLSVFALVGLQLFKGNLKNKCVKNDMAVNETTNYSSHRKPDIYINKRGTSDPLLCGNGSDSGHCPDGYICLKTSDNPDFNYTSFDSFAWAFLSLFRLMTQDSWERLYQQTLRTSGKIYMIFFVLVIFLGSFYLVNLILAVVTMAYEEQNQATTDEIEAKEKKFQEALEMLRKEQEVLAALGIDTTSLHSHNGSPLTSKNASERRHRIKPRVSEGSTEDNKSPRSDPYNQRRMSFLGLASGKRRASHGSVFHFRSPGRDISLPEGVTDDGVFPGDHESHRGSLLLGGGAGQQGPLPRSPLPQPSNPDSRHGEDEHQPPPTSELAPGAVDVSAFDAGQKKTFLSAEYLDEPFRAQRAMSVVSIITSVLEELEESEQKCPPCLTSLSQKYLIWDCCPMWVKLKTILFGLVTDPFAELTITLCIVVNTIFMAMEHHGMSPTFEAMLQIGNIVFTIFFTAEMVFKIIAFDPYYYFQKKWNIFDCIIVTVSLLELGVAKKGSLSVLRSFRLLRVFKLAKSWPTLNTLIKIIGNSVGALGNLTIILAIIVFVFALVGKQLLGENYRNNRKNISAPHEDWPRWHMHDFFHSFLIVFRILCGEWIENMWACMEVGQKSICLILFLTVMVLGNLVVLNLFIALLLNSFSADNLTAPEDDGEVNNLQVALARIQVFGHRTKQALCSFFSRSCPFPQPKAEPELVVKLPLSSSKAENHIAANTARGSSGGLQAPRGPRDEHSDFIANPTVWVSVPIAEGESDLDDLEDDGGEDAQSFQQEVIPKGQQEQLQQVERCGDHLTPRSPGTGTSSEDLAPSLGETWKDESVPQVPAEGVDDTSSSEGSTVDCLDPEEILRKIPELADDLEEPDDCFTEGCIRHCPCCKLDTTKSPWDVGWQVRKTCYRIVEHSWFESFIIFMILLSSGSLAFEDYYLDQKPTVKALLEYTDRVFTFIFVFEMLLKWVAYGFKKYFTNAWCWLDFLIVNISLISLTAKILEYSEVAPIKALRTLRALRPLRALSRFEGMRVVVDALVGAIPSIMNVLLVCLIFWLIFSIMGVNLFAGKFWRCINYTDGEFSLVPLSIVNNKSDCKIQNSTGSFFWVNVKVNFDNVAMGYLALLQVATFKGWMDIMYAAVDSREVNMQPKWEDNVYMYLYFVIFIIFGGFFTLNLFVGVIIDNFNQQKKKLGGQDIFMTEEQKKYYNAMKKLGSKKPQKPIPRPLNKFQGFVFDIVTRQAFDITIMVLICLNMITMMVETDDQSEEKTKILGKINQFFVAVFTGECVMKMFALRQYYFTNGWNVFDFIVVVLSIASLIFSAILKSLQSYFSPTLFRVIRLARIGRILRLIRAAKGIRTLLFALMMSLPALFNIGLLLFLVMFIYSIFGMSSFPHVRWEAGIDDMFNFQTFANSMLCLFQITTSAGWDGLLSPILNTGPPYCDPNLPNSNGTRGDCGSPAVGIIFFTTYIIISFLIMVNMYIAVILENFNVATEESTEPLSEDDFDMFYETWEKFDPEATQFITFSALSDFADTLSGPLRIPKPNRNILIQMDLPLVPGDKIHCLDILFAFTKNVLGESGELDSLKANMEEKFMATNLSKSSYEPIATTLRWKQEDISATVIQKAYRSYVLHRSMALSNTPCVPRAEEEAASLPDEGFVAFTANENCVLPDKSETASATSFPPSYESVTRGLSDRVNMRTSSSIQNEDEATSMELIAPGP
- Protocol Summary: Inhibition of human Nav1.8 stably expressed in SH-SY-5Y cells (membrane potential dye fluorescence assay)
- Assay type: cell-based
- Conditions Used: SH-SY-5Y hNav1.8 cells; FLIPR membrane potential dye; 10 μM pyrethroid, 250 nM TTX; test concentration range 100 μM-0.05 μM; read-out: hNav1.8 IC50
Checkbox rule: IC50 lower than 5 µM = satisfied; IC50 not lower than 5 µM = not satisfied.

Ask: Check if IC50 falls below 5 µM for COCCCOc1ccc(NC(=O)N2CC3CC2CN3C(C)c2ccccc2C)cc1 (centres unmarked) [Example 27] .
Result: not satisfied

Ask: Moving on to Cc1ccccc1C(C)N1CC2CC1CN2C(=O)Nc1ccc(-c2ccccc2)cc1 (centres unmarked) [Example 38]
Result: satisfied

Ask: Moving on to Cc1cc(F)ccc1C(C)N1CC2CC1CN2C(=O)Nc1ccc(C(=O)c2ccccc2)cc1 (centres unmarked) [Example 71]
Result: satisfied

Ask: Moving on to CC(c1ccccc1Br)N1CC2CC1CN2C(=O)c1ccc(Oc2ccccc2)cc1 (centres unmarked) [Example 159]
Result: not satisfied

Ask: Moving on to Cc1ccccc1C(C)N1CC2CC1CN2C(=O)Nc1ccc(OCC2CCCCO2)cc1 (centres unmarked) [Example 25]
Result: not satisfied

Ask: Moving on to O=C(Nc1ccc(Oc2ccc(F)cc2)cc1)N1CCC2(CCN(C3Cc4ccccc4C3)C2)C1 (centres unmarked) [Example 104]
Result: satisfied

Ask: Moving on to Cc1ccccc1C(C)N1CC2CC1CN2C(=O)Nc1ccc(OCC2CCCO2)cc1 (centres unmarked) [Example 26]
Result: not satisfied

Data credit: patent US20100204224A1
